Cited source for all entries: patent US11369565B2

- Tested on: rabbit skeletal myofibrils (approximately 90% fast fibers)
- Experimental protocol: Activation of fast skeletal myofibrils (PUMA coupled-enzyme ATPase assay at pCa25)
- Format: biochemical
- Setup conditions: concentration at which the compound increased the enzymatic activity by 40%; calcium at pCa25; PM12 buffer pH 6.8
- Source text: Preparation of fast skeletal myofibrils. […] Activation of Fast Skeletal Myofibrils. […] This assay regenerates myosin-produced ADP into ATP by oxidizing NADH, producing an absorbance change at 340 nm. […]
Readout kind: Mean AC1.4

Known results for compounds:
given_smiles=CC(C)(Nc1ncc(-c2nc(C(N)=O)cs2)cn1)c1ncccc1F reported_result="D (D=>20 uM)"
given_smiles=O=C(Nc1nncs1)c1cnc(NCC2(c3ncccc3F)CCC2)nc1 reported_result="B (B=1-10 uM)"
given_smiles=CC(C)(CNc1ncc(-c2cncc(C(N)=O)c2)cn1)c1ccc(F)cc1 reported_result="B (B=1-10 uM)"
given_smiles=CC(C)(Nc1ncc(-n2ccc(C(N)=O)c2)cn1)c1ncccc1Cl reported_result="B (B=1-10 uM)"
given_smiles=O=C(NCCO)c1cnc(NCC2(c3ncccc3F)CCC2)nc1 reported_result="D (D=>20 uM)"

Q: Return reported Mean AC1.4; argument: "CNC(=O)c1ccn(-c2cnc(NC[C@]3(c4ncccc4F)C[C@H](F)C3)nc2)c1"
Result: B (B=1-10 uM)

Q: Return reported Mean AC1.4; argument: "N#Cc1n[nH]c2cc(F)c(-c3cnc(NC4(c5ncccc5F)CCC4)nc3)cc12"
Result: B (B=1-10 uM)

Q: Return reported Mean AC1.4; argument: "CC(C)(Nc1ncc(C2N=NN=N2)cn1)c1ncccc1Cl"
Result: D (D=>20 uM)

Q: Return reported Mean AC1.4; argument: "NC(=O)Cc1cnc(-c2cnc(NCC3(c4ncccc4Cl)CCC3)nc2)s1"
Result: A (A=<1 uM)

Q: Return reported Mean AC1.4; argument: "CC(C)(CNc1ncc(-c2ccc3[nH]nc(N)c3c2)cn1)c1ccc(F)cc1"
Result: A (A=<1 uM)

----------
- Tested on: rabbit skeletal myofibrils (approximately 90% fast fibers)
- Experimental protocol: Activation of fast skeletal myofibrils (PUMA coupled-enzyme ATPase assay at pCa25)
- Format: biochemical
- Setup conditions: concentration at which the compound increased the enzymatic activity by 40%; calcium at pCa25; PM12 buffer pH 6.8
Readout kind: Mean AC1.4

Known results for compounds:
given_smiles=CC(C)(Nc1nccc(-c2nccs2)n1)c1ncccc1Cl reported_result="D (D=>20 uM)"
given_smiles=NC(=O)Cc1cnc(-c2cnc(NCC3(c4ncccc4F)CCC3)nc2)s1 reported_result="B (B=1-10 uM)"
given_smiles=CC(C)(Nc1ncc(-c2ccc3[nH]ncc3c2)cn1)c1ncccc1Cl reported_result="A (A=<1 uM)"
given_smiles=NC(=O)c1cnn(-c2cnc(NCC3(c4ncccc4F)CCC3)nc2)c1 reported_result="B (B=1-10 uM)"
given_smiles=CC(C)(Nc1ncc(-c2cc(C(N)=O)n[nH]2)cn1)c1ncccc1Cl reported_result="C (C=10-20 uM)"

Q: Return reported Mean AC1.4; argument: "CN(C(=O)c1cnc(NCC2(c3ncccc3F)CCC2)nc1)c1nccs1"
Result: D (D=>20 uM)

Q: Return reported Mean AC1.4; argument: "Fc1ccc(C2(Nc3ncc4cn[nH]c4n3)CCC2)cc1"
Result: D (D=>20 uM)

Q: Return reported Mean AC1.4; argument: "N#Cc1ccc(F)c(-c2cnc(NCC3(c4ncccc4Cl)CCC3)nc2)c1"
Result: A (A=<1 uM)

Q: Return reported Mean AC1.4; argument: "NC(=O)c1cnc(-c2cnc(NCC3(c4ncccc4F)CCC3)nc2)s1"
Result: A (A=<1 uM)

Q: Return reported Mean AC1.4; argument: "NC(=O)c1ccnc(-c2cnc(NC[C@]3(c4ncccc4F)C[C@H](F)C3)nc2)c1"
Result: B (B=1-10 uM)

Q: Return reported Mean AC1.4; argument: "NC(=O)c1cc2cnc(NCC3(c4ncccc4F)CCC3)nc2s1"
Result: C (C=10-20 uM)
